B1: Azoarcus group I ribozyme (parent)
chain: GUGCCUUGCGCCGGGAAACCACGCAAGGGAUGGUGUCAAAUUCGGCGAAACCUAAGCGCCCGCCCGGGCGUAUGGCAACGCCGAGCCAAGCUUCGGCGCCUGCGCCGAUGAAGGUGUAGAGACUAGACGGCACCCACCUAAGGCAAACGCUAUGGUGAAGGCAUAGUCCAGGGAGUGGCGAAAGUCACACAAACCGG

- Variants of: B1
- measurement_description: reverse-splicing fitness (ratio to wild type); higher = more active; in vitro selection; Mg2+ level not given
Form field: reverse-splicing fitness (one value per entry).
Give the value as a plain number.

Consider the following illustrative entries.
C82A A120C C169U U176G: 0.00416
C82A A111C A120C A145U C150G: 0.00822
A120G A145G C169U: 0.441
A111U A120G C150G U176A: 0.00753

input: Which measured reverse-splicing fitness value corresponds to C82A A111C A120C A145U C150A U176A ?
output: 0.0112
